Entries and their measured GI50 follow.
Test system: HS 578T breast
Experiment: NCI tumour cell line growth inhibition, 48 h

Here is how some molecules turned out for GI50.
Q. Reported GI50, molecule CC(=O)OC(C)(C)/C(C)=C/C(=O)O[C@H]1C(=O)O[C@@H]2C[C@H]3[C@H](C)C(=O)C(O[C@@H]4O[C@H](CO)[C@@H](O)[C@H](O)[C@H]4O)=C[C@]3(C)[C@H]3[C@@H](O)[C@H](O)[C@@]4(C(=O)O)OC[C@]32[C@@H]14 : ____
A. > 100 µM

Q. C[C@@]12CCC[C@@](C)(C(=O)O)C1CC[C@]13C[C@@](O)(CO)[C@](O)(CCC12)C3 (some centres not stated) ?
A. > 100 µM

Further cases:
Q. Reported GI50 for CCN(CC)CC(O)CNc1c2ccc([N+](=O)[O-])cc2nc2cc(OC)c(OC)cc12 (configuration not stated) : what is it?
A. 0.728 µM

Q. Similarly, NCCOCCOCCNc1nc(-c2ccccc2)nc(N2CCN(c3ccccn3)CC2)n1 ?
A. 15.4 µM

Q. Now consider N=c1ccn(O)cc1/C=C1/C(=O)Nc2ccccc21 and answer again.
A. > 100 µM

Q. And for COc1cc(C(=O)N2CCN(c3ncnc4ccccc34)CC2)c(N)cc1OCc1ccccc1 ?
A. 17.1 µM

Q. How about COc1ccc2c(=O)cc(C(Cl)(Cl)Cl)oc2c1 ?
A. 0.979 µM
